biological target: GPR35 (Homo sapiens); test: cellular GPR35 phospho-ERK HTRF assay (inhibition of lodoxamide-induced phospho-ERK signal); conditions: GPR35-CHO-K1-mt aequorin-Gα16 cell line; agonist lodoxamide at EC80; read-out: Activity Group (IC50, inhibition of GPR35 agonist-induced phospho-ERK signal)
Sequence (Q9HC97 whole entry): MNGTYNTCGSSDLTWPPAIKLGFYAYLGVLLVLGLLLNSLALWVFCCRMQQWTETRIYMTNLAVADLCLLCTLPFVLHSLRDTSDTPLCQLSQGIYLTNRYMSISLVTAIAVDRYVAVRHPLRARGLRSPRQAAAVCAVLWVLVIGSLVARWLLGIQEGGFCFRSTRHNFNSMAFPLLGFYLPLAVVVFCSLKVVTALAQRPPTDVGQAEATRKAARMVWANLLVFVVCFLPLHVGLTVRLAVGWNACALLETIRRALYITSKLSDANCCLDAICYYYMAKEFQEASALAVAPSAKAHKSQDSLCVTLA
pIC50: −log10 of the molar value.
value_kind: pIC50

INSERT INTO measurements (smiles_input, experimental_system, obs_value) VALUES
  ('O=C(Nc1ccc(OCCc2ccccc2)cc1)c1cccc(-c2ccc(C(=O)O)nc2)c1', 'GPR35 (Homo sapiens)', '5.00 to 6.00'),
  ('Cn1cc(-c2cccc(C(=O)Nc3ccc(OCCc4ccccc4)cc3)c2)cc(C(=O)O)c1=O', 'GPR35 (Homo sapiens)', '5.00 to 6.00'),
  ('Cc1ncc(-c2cccc(C(=O)Nc3ccc(OCC4CC4)cc3)c2)cc1C(=O)O', 'GPR35 (Homo sapiens)', '5.00 to 6.00'),
  ('COCCOc1ncc(C(=O)Nc2ccc(OCCc3ccccc3)cc2)cc1-c1cnc(C)c(C(=O)O)c1', 'GPR35 (Homo sapiens)', '5.00 to 6.00');

====

biological target: GPR35 (Homo sapiens); test: cellular GPR35 phospho-ERK HTRF assay (inhibition of lodoxamide-induced phospho-ERK signal); conditions: GPR35-CHO-K1-mt aequorin-Gα16 cell line; agonist lodoxamide at EC80; read-out: Activity Group (IC50, inhibition of GPR35 agonist-induced phospho-ERK signal)
pIC50: −log10 of the molar value.
Quick reference for pIC50 among some molecules
value_kind: pIC50

INSERT INTO assay_data (smiles_input, experimental_system, obs_value) VALUES
  ('O=C(Nc1ccc(OCCc2ccccc2)cc1)c1cccc(-c2cnc(NC3CC3)c(C(=O)O)c2)c1', 'GPR35 (Homo sapiens)', '> 6.00'),
  ('O=C(Nc1ccc(OCCc2ccccc2)cc1)c1cccc(-c2cnc(N3CCOCC3)c(C(=O)O)c2)c1', 'GPR35 (Homo sapiens)', '> 6.00'),
  ('O=C(O)Cc1cncc(-c2cccc(C(=O)Nc3ccc(OCCc4ccccc4)cc3)c2)c1', 'GPR35 (Homo sapiens)', '> 6.00'),
  ('O=C(Nc1ccc(OCCc2ccccc2)cc1)c1cccc(-c2ccncc2C(=O)O)c1', 'GPR35 (Homo sapiens)', '5.00 to 6.00'),
  ('Cc1ncc(-c2ccc(F)c(C(=O)Nc3ccc(OCC4CC4)cc3)c2)cc1C(=O)O', 'GPR35 (Homo sapiens)', '5.00 to 6.00'),
  ('COc1cccc(COCc2ccc(NC(=O)c3cccc(-c4cnc(C)c(C(=O)O)c4)c3)cc2F)c1', 'GPR35 (Homo sapiens)', '> 6.00'),
  ('O=C(O)c1cnc(O)c(-c2cccc(C(=O)Nc3ccc(OCCc4ccccc4)cc3)c2)c1', 'GPR35 (Homo sapiens)', '5.00 to 6.00'),
  ('Cc1ncc(-c2cncc(C(=O)Nc3ccc(OCCc4ccccc4)cc3)c2)cc1C(=O)O', 'GPR35 (Homo sapiens)', '5.00 to 6.00'),
  ('Cc1ncc(-c2cc(C(=O)Nc3ccc(OCC4CC4)cc3)ccn2)cc1C(=O)O', 'GPR35 (Homo sapiens)', '5.00 to 6.00'),
  ('Cc1ncc(-c2cccc(C(=O)Nc3ccc(COCc4ccccc4)cc3)c2)nc1C(=O)O', 'GPR35 (Homo sapiens)', '> 6.00'),
  ('O=C(Nc1ccc(OCCc2ccccc2)cc1)c1cccc(-c2cnc(F)c(C(=O)O)c2)c1', 'GPR35 (Homo sapiens)', '> 6.00'),
  ('O=C(Nc1ccc(OCCc2ccccc2)cc1)c1cccc(-c2cnc(NCCO)c(C(=O)O)c2)c1', 'GPR35 (Homo sapiens)', '> 6.00'),
  ('O=C(Nc1ccc(OCCc2ccccc2)cc1)c1cccc(-c2cncc(C(=O)O)n2)c1', 'GPR35 (Homo sapiens)', '> 6.00'),
  ('O=C(Nc1ccc(OCCc2ccccc2)cc1)c1cccc(-c2cnc(C3CC3)c(C(=O)O)c2)c1', 'GPR35 (Homo sapiens)', '> 6.00'),
  ('Cc1ncc(-c2cc(C(=O)Nc3ccc(OCCc4ccccc4)cc3)ccn2)cc1C(=O)O', 'GPR35 (Homo sapiens)', '> 6.00'),
  ('O=C(Nc1ccc(OCCc2ccccc2)cc1)c1cccc(-c2cccc(C(=O)O)n2)c1', 'GPR35 (Homo sapiens)', '> 6.00');

Where do the numbers come from? From patent US20260216198A1.
